Test system: up to 32 different microorganisms
Protocol summary: in vitro antibacterial activity (MIC), agar dilution on Brain Heart Infusion (BHI) agar with Steers replicator
Assay type: cell-based
Measurement context: Streptococcus Pneumonia 5649 (code ZZA); unit assumed
Quantity name: MIC (µg/mL)

mol=CC[C@H]1OC(=O)[C@H](C)C(=O)[C@H](C)[C@@H](O[C@@H]2O[C@H](C)C[C@H](N(C)C)[C@H]2O)[C@@](C)(OCc2ccc3ccccc3c2)C[C@@H](C)C(=O)[C@H](C)[C@@H](O)[C@]1(C)O experimental_result=4
mol=CC[C@H]1OC(=O)[C@H](C)C(=O)[C@H](C)[C@@H](O[C@@H]2O[C@H](C)C[C@H](N(C)C)[C@H]2O)[C@@](C)(OCC=Cc2cnc3ccccc3c2)C[C@@H](C)C(=O)[C@H](C)[C@@H](O)[C@]1(C)O experimental_result=0.25

* * *

Tested on: up to 32 different microorganisms
Protocol summary: in vitro antibacterial activity (MIC), agar dilution on Brain Heart Infusion (BHI) agar with Steers replicator
Type: cell-based
Measurement context: organism code II; unit assumed
Quantity name: MIC (µg/mL)

compound="CCC1OC(=O)C(C)C(=O)C(C)C(OC2OC(C)CC(N(C)C)C2O)C(C)(OCC=Cc2ccc(-c3ccon3)s2)CC(C)C(=O)C(C)C2NC(=O)OC12C (centres unmarked)" target_or_system="up to 32 different microorganisms" quantity_name=MIC experimental_result=0.02
compound=CC[C@H]1OC(=O)[C@H](C)C(=O)[C@H](C)[C@@H](O[C@@H]2O[C@H](C)C[C@H](N(C)C)[C@H]2O)[C@@](C)(OCC=Cc2cnc3ccccc3c2)C[C@@H](C)C(=O)[C@H](C)[C@H]2N(N)C(=O)O[C@]12C target_or_system="up to 32 different microorganisms" quantity_name=MIC experimental_result=0.01
compound=CC[C@H]1OC(=O)[C@H](C)C(=O)[C@H](C)[C@@H](O[C@@H]2O[C@H](C)C[C@H](N(C)C)[C@H]2O)[C@@](C)(OCC=NOCc2ccc3ncccc3c2)C[C@@H](C)C(=O)[C@H](C)[C@H]2NC(=O)O[C@@]21C target_or_system="up to 32 different microorganisms" quantity_name=MIC experimental_result=0.05
compound="CCC1OC(=O)C(C)C(=O)C(C)C(OC2OC(C)CC(N(C)C)C2O)C(C)(OCC=Cc2ccc3cc(O)c(C(=O)Nc4ccccc4OC)cc3c2)CC(C)C(=O)C(C)C2NC(=O)OC12C (centres unmarked)" target_or_system="up to 32 different microorganisms" quantity_name=MIC experimental_result=0.39
compound="CCC1OC(=O)C(C)C(=O)C(C)C(OC2OC(C)CC(N(C)C)C2O)C(C)(OCC=Cc2ccc3cc(OC)ccc3c2)CC(C)C(=O)C(C)C2NC(=O)OC12C (centres unmarked)" target_or_system="up to 32 different microorganisms" quantity_name=MIC experimental_result=0.05

* * *

Test system: up to 32 different microorganisms
Protocol summary: in vitro antibacterial activity (MIC), agar dilution on Brain Heart Infusion (BHI) agar with Steers replicator
Assay type: cell-based
Measurement context: organism code II; unit assumed
Quantity name: MIC (µg/mL)

compound="CCC1OC(=O)C(C)C(=O)C(C)C(OC2OC(C)CC(N(C)C)C2O)C(C)(OCC=Cc2cnc3ccc(F)cc3c2)CC(C)C(=O)C(C)C2NC(=O)OC12C (centres unmarked)" experimental_result=0.05
compound="CCC1OC(=O)C(C)C(=O)C(C)C(OC2OC(C)CC(N(C)C)C2O)C(C)(OCC=Cc2cnc3ccc(N)cc3c2)CC(C)C(=O)C(C)C2NC(=O)OC12C (centres unmarked)" experimental_result=0.01
compound=CC[C@H]1OC(=O)[C@H](C)C(=O)[C@H](C)[C@@H](O[C@@H]2O[C@H](C)C[C@H](N(C)C)[C@H]2O)[C@@](C)(OCC#Cc2cnc3ccc([N+](=O)[O-])cc3c2)C[C@@H](C)C(=O)[C@H](C)[C@H]2NC(=O)O[C@@]21C experimental_result=0.02
compound="CCC1OC(=O)C(C)C(=O)C(C)C(OC2OC(C)CC(N(C)C)C2O)C(C)(OCC#CC=Cc2ccccc2)CC(C)C(=O)C(C)C2NC(=O)OC12C (centres unmarked)" experimental_result=0.02
compound=CC[C@H]1OC(=O)[C@H](C)C(=O)[C@H](C)[C@@H](O[C@@H]2O[C@H](C)C[C@H](N(C)C)[C@H]2O)[C@@](C)(OCCNCCCCc2ccccc2)C[C@@H](C)C(=O)[C@H](C)[C@H]2NC(=O)O[C@@]21C experimental_result=0.01

* * *

Tested on: up to 32 different microorganisms
Protocol summary: in vitro antibacterial activity (MIC), agar dilution on Brain Heart Infusion (BHI) agar with Steers replicator
Type: cell-based
Measurement context: Streptococcus agalactiae CMX 508 (code KK); unit assumed
This section presents compounds with their documented MIC values.
Quantity name: MIC

compound=CC[C@H]1OC(=O)[C@H](C)C(=O)[C@H](C)[C@@H](O[C@@H]2O[C@H](C)C[C@H](N(C)C)[C@H]2O)[C@@](C)(OCC=Cc2ccc(OC)cc2)C[C@@H](C)C(=O)[C@H](C)[C@@H](O)[C@]1(C)O experimental_result="0.39 µg/mL"
compound=CC[C@H]1OC(=O)[C@H](C)C(=O)[C@H](C)[C@@H](O[C@@H]2O[C@H](C)C[C@H](N(C)C)[C@H]2O)[C@@](C)(OCC=NO)C[C@@H](C)C(=O)[C@H](C)[C@@H](O)[C@]1(C)O experimental_result="1.56 µg/mL"
compound=CC[C@H]1OC(=O)[C@H](C)C(=O)[C@H](C)[C@@H](O[C@@H]2O[C@H](C)C[C@H](N(C)C)[C@H]2O)[C@@](C)(OCCNCc2ccccc2)C[C@@H](C)C(=O)[C@H](C)[C@@H](O)[C@]1(C)O experimental_result="0.39 µg/mL"
compound="CCC1OC(=O)C(C)C(=O)C(C)C(OC2OC(C)CC(N(C)C)C2O)C(C)(OCC=Cc2ccc3c(c2)OCO3)CC(C)C(=O)C(C)C2NC(=O)OC12C (centres unmarked)" experimental_result="≤ 0.005 µg/mL"
compound=CC[C@H]1OC(=O)[C@H](C)C(=O)[C@H](C)[C@@H](O[C@@H]2O[C@H](C)C[C@H](N(C)C)[C@H]2O)[C@@](C)(OCC=Cc2ccc(Cl)cc2)C[C@@H](C)C(=O)[C@H](C)[C@H]2OC(=O)O[C@@]21C experimental_result="0.05 µg/mL"

* * *

Tested on: up to 32 different microorganisms
Protocol summary: in vitro antibacterial activity (MIC), agar dilution on Brain Heart Infusion (BHI) agar with Steers replicator
Type: cell-based
Measurement context: Staphylococcus aureus CMX 642A (code DD); unit assumed
Quantity name: MIC (µg/mL)

compound="CCC1OC(=O)C(C)C(=O)C(C)C(OC2OC(C)CC(N(C)C)C2O)C(C)(OCC=Cc2cncc3ccccc23)CC(C)C(=O)C(C)C2NC(=O)OC12C (stereo not drawn)" unit_spec=µg/mL experimental_result=0.1
compound="CCC1OC(=O)C(C)C(=O)C(C)C(OC2OC(C)CC(N(C)C)C2O)C(C)(OCC=Cc2ccc3nc(C)ccc3c2)CC(C)C(=O)C(C)C2NC(=O)OC12C (stereo not drawn)" unit_spec=µg/mL experimental_result=0.1
compound=CC[C@H]1OC(=O)[C@H](C)C(=O)[C@H](C)[C@@H](O[C@@H]2O[C@H](C)C[C@H](N(C)C)[C@H]2O)[C@@](C)(OCC=Cc2cnc3ccccc3c2)C[C@@H](C)C(=O)[C@H](C)[C@H]2NC(=O)O[C@@]21C unit_spec=µg/mL experimental_result=0.05
compound=CC[C@H]1OC(=O)[C@H](C)C(=O)[C@H](C)[C@@H](O[C@@H]2O[C@H](C)C[C@H](N(C)C)[C@H]2O)[C@@](C)(OCc2ccc3ccccc3c2)C[C@@H](C)C(=O)[C@H](C)[C@@H](O)[C@]1(C)O unit_spec=µg/mL experimental_result=12.5
compound=CC[C@H]1OC(=O)[C@H](C)C(=O)[C@H](C)[C@@H](O[C@@H]2O[C@H](C)C[C@H](N(C)C)[C@H]2O)[C@@](C)(OCc2ccc3ccccc3c2)C[C@@H](C)C(=O)[C@H](C)[C@H]2NC(=O)O[C@@]21C unit_spec=µg/mL experimental_result=1.56
compound=CC[C@H]1OC(=O)[C@H](C)C(=O)[C@H](C)[C@@H](O[C@@H]2O[C@H](C)C[C@H](N(C)C)[C@H]2O)[C@@](C)(OCC=Cc2ccccc2)C[C@@H](C)C(=O)[C@H](C)[C@@H](O)[C@]1(C)O unit_spec=µg/mL experimental_result=3.1

* * *

This section presents compounds with their documented MIC values.
Test system: up to 32 different microorganisms
Protocol summary: in vitro antibacterial activity (MIC), agar dilution on Brain Heart Infusion (BHI) agar with Steers replicator
Format: cell-based
Measurement context: Staphylococcus aureus CMX 553 (code FF); unit assumed
Quantity name: MIC (µg/mL)

compound="CC[C@H]1OC(=O)[C@H](C)C(=O)[C@H](C)[C@@H](O[C@@H]2O[C@H](C)C[C@H](N(C)C)[C@H]2O)[C@@](C)(OCC=Cc2ccc(Cl)cc2)C[C@@H](C)C(=O)[C@H](C)[C@@H](O)[C@]1(C)O [Example 17]" target_or_system="up to 32 different microorganisms" quantity_name=MIC experimental_result=1.56
compound="CCCO[C@@]1(C)C[C@@H](C)C(=O)[C@H](C)[C@@H](O)[C@](C)(O)[C@@H](CC)OC(=O)[C@H](C)C(=O)[C@H](C)[C@H]1O[C@@H]1O[C@H](C)C[C@H](N(C)C)[C@H]1O [Example 3]" target_or_system="up to 32 different microorganisms" quantity_name=MIC experimental_result=25
compound="CCC1OC(=O)C(C)C(=O)C(C)C(OC2OC(C)CC(N(C)C)C2O)C(C)(OCC=Cc2cccc([N+](=O)[O-])c2)CC(C)C(=O)C(C)C2NC(=O)OC12C (stereo not drawn) [Example 193, R is —CH2CH═CH-(3-nitrophenyl)]" target_or_system="up to 32 different microorganisms" quantity_name=MIC experimental_result=0.1
compound="CC[C@H]1OC(=O)[C@H](C)C(=O)[C@H](C)[C@@H](O[C@@H]2O[C@H](C)C[C@H](N(C)C)[C@H]2O)[C@@](C)(OCCNCc2ccccc2)C[C@@H](C)C(=O)[C@H](C)[C@@H](O)[C@]1(C)O [Example 9]" target_or_system="up to 32 different microorganisms" quantity_name=MIC experimental_result=3.1
compound="CCC1OC(=O)C(C)C(=O)C(C)C(OC2OC(C)CC(N(C)C)C2O)C(C)(OCC=Cc2ccc3c(c2)OCO3)CC(C)C(=O)C(C)C2NC(=O)OC12C (stereo not drawn) [Example 188]" target_or_system="up to 32 different microorganisms" quantity_name=MIC experimental_result=0.1
compound="C=CCOC1(C)CC(C)C(=O)C(C)C2N(CC=C)C(=O)OC2(C)C(CC)OC(=O)C(C)C(=O)C(C)C1OC1OC(C)CC(N(C)C)C1O (stereo not drawn) [Example 183]" target_or_system="up to 32 different microorganisms" quantity_name=MIC experimental_result=25
